Assay: Acute toxicity in po dosed mouse
Assay type: organism-based
Conditions: in vivo
METRIC: LD50
Provide a numeric answer, followed by its unit.

Lookup: Give me measured LD50, please, for this molecule: CC1COc2c(N3CCN(C)CC3)c(F)cc3c(=O)c(C(=O)O)cn1c23 (stereo unspecified) [OFLOXACIN]
Found: 5450 mg/kg

* * *

Test: Acute toxicity in po dosed mouse administered as single dose measured after 14 days
Type: organism-based
Details: in vivo
METRIC: LD50 at 336 h (mg/kg)
State just the number; it will be interpreted in mg/kg.

Sample answers from the record:
SMILES | READING
Fc1cc(F)cc(-c2cncnc2)c1 | 300
c1ccc(-c2cncnc2-c2ccco2)cc1 | 150

Let's switch to this compound now.
Lookup: Give me measured LD50 at 336 h, please, for this compound: FC(F)(F)c1ccc(-c2cncnc2-c2ccco2)c(C(F)(F)F)c1
Found: 600
